test system: LU99A; assay: relative viability (nuclei count vs DMSO), 5 days (fraction); higher = more cells survive; details: first compound 1.265 µM
endpoint-name: relative viability
Answers are plain numbers.

Guide cases for relative viability, answers given:
# input Consider the compound Clc1ccc(Nc2nnc(Cc3ccncc3)c3ccccc23)cc1 [Vatalanib] + C[C@@H](Oc1cc(-c2cnn(C3CCNCC3)c2)cnc1N)c1c(Cl)ccc(F)c1Cl [Crizotinib] (partner 1 µM) and give its measured relative viability.
# output 0.528

# input Consider the compound Clc1ccc(Nc2nnc(Cc3ccncc3)c3ccccc23)cc1 [Vatalanib] + Nc1ncn([C@H]2C[C@H](O)[C@@H](CO)O2)c(=O)n1 [Decitabine] (partner 2 µM) and give its measured relative viability.
# output 0.868

# input Consider the compound Clc1ccc(Nc2nnc(Cc3ccncc3)c3ccccc23)cc1 [Vatalanib] + O=C(CCCCCCC(=O)Nc1ccccc1)NO [Vorinostat] (partner 1 µM) and give its measured relative viability.
# output 0.472

# input Consider the compound COc1cc(N2CCC(C(N)=O)CC2)ccc1Nc1nc(N)c(Cl)c(Nc2ccccc2S(=O)(=O)C(C)C)n1 [HG-5-88-01] + COc1cc2c(Oc3ccc(NC(=O)C4(C(=O)Nc5ccc(F)cc5)CC4)cc3F)ccnc2cc1OCCCN1CCOCC1 [Foretinib] (partner 0.25 µM) and give its measured relative viability.
# output 0.83

Note: attention shifts to another entry.
# input Consider the compound Clc1ccc(Nc2nnc(Cc3ccncc3)c3ccccc23)cc1 [Vatalanib] + N=C(N)NC(=N)NCCc1ccccc1 [Phenformin] (partner 250 µM) and give its measured relative viability.
# output 0.705
